# TEST_TARGET: Aspartate--tRNA(Asp/Asn) ligase (Mycobacterium tuberculosis (strain ATCC 25618 / H37Rv)); note: in the data most compounds retested in dose-response had high values
# MEASUREMENT_NOTES: Assay for Asp RNA synthetase-1 from Mycobacterium tuberculosis
# Type: functional
# Set-up: scale not given: direction of the effect not stated beside the values
# CONDITION_INFO: 30 µM
METRIC_NAME: Percent Effect (%)
Give just the numeric value; % need not be written.

Complete the entry with Percent Effect for CCC(C)CNc1ccc2oc(COC)nc2c1 (configuration not stated) 65.3

Complete the entry with Percent Effect for CC(C)C(=O)N1CCCC(c2cc(C(F)F)n3ncnc3n2)C1 (configuration not stated) 1.92

Complete the entry with Percent Effect for `Fc1ccc(CN2CCC(c3n[nH]c4ncccc34)CC2)cc1F` 5.4

Complete the entry with Percent Effect for `CC(=O)c1cc(CN2C[C@H]3CC[C@@H]2CN(S(=O)(=O)N(C)C)C3)cs1` -1.45

Complete the entry with Percent Effect for CC(C)NC(=O)CC1COC2(CCN(Cc3cccs3)CC2)C1 (configuration not stated) -0.0228

Complete the entry with Percent Effect for `CCCN(CC(=O)NC)C(=O)c1ccc(-c2ccsc2)nc1C` -3.29

Complete the entry with Percent Effect for `CCn1cnnc1C1CCN(C(=O)c2ccc3cc[nH]c3c2)CC1` -3

Complete the entry with Percent Effect for `COC(=O)Cn1cccc(S(=O)(=O)N2CCC(C)CC2)c1=O` -4.76

Complete the entry with Percent Effect for CCc1n[nH]c(C2CN(CCc3cccs3)CCO2)n1 (configuration not stated) -6.83

Complete the entry with Percent Effect for `Cc1cnc(N)c(C(=O)C2CCN(C(=O)c3ccccc3F)CC2)c1` -1.9

Complete the entry with Percent Effect for `O=C1COC2(CCN(Cc3ccccn3)CC2)CN1CC1CC1` 4.21

Complete the entry with Percent Effect for CC(Cn1ccnc1)NC(=O)C1(c2ccc3c(c2)OCCO3)CCCC1 (configuration not stated) -0.0286

---

# TEST_TARGET: Shiga toxin 2 (Escherichia coli O157:H7) (UniProt P09385+P09386)
# MEASUREMENT_NOTES: E. coli 0.157:H7 Shiga Toxin SOP - stx2 screening assay
# Assay type: functional
# Set-up: scale not given: direction of the effect not stated beside the values
# CONDITION_INFO: 30 µM
Record form. Attribute: Percent Effect. Fill in for each entry.
Give just the numeric value; % need not be written.

Enter measured Percent Effect, system Shiga toxin 2 (Escherichia coli O157:H7) (UniProt P09385+P09386), for the molecule shown: `CCn1cc(CN2CCCN(C(=O)c3ccn(C)c(=O)c3)CC2)cn1` -0.744

Enter measured Percent Effect, system Shiga toxin 2 (Escherichia coli O157:H7) (UniProt P09385+P09386), for the molecule shown: `CC(C)c1nn(C)c(Cl)c1CNCc1ccc2c(c1)OCCO2` 32.9

Enter measured Percent Effect, system Shiga toxin 2 (Escherichia coli O157:H7) (UniProt P09385+P09386), for the molecule shown: Cc1ccc(C(=O)N2CCN(CC(O)c3ccc(F)cc3)CC2)s1 (configuration not stated) 32.2

Enter measured Percent Effect, system Shiga toxin 2 (Escherichia coli O157:H7) (UniProt P09385+P09386), for the molecule shown: Cc1nc(C2CCCN(C(=O)c3cc(Cl)c[nH]3)C2)no1 (configuration not stated) 0.906

Enter measured Percent Effect, system Shiga toxin 2 (Escherichia coli O157:H7) (UniProt P09385+P09386), for the molecule shown: `COCCN(Cc1ccoc1)C(=O)c1cccnc1SC` -0.408

Enter measured Percent Effect, system Shiga toxin 2 (Escherichia coli O157:H7) (UniProt P09385+P09386), for the molecule shown: `Cc1noc(C)c1CCC(=O)N1CCN(CCn2cncn2)CC1` -7.17

Enter measured Percent Effect, system Shiga toxin 2 (Escherichia coli O157:H7) (UniProt P09385+P09386), for the molecule shown: `CC(C)COCc1cncc2c1CCN(Cc1cnn(C)c1)C2` -36.8

Enter measured Percent Effect, system Shiga toxin 2 (Escherichia coli O157:H7) (UniProt P09385+P09386), for the molecule shown: CC(CNC(=O)c1ccc(F)cc1Cl)N1CCCC1 (configuration not stated) -4.69

Enter measured Percent Effect, system Shiga toxin 2 (Escherichia coli O157:H7) (UniProt P09385+P09386), for the molecule shown: `CCc1cnc(N2CC3(CCN(C(=O)c4ccoc4)C3)C2)nc1` -30.6

Enter measured Percent Effect, system Shiga toxin 2 (Escherichia coli O157:H7) (UniProt P09385+P09386), for the molecule shown: `CNC(=O)c1ccc(OC2CCN(S(C)(=O)=O)CC2)c(Cl)c1` -64.7

Enter measured Percent Effect, system Shiga toxin 2 (Escherichia coli O157:H7) (UniProt P09385+P09386), for the molecule shown: Cc1ccc(CC(=O)N(C)CC2(O)CCN(c3ccccn3)C2)s1 (configuration not stated) -0.365

Enter measured Percent Effect, system Shiga toxin 2 (Escherichia coli O157:H7) (UniProt P09385+P09386), for the molecule shown: `CC(C)c1cc(N2CCN(c3ccc(O)cc3)CC2)n2nccc2n1` 15
